Tested on: T1, human IL-2Rγ (common cytokine receptor γ-chain) (human, UniProt P31785 23-262, limits assumed)
T1 construct: Recombinant protein coated on the plate or immobilised on a CM5 chip; also called hu IL-2R; CD132
T1 sequence: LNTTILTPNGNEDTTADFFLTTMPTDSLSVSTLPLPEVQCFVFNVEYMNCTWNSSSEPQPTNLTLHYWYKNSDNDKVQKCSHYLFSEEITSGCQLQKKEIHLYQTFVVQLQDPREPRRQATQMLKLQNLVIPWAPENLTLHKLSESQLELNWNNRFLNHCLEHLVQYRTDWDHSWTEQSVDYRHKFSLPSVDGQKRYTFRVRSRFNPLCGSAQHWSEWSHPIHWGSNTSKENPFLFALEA
Protocol notes: SPR off-rate ranking, periplasmic extract on immobilised protein
Give koff for every item shown.
The reply should contain only the number, in s⁻¹.

Input line: Specify measured koff for FJ1427_P035MP04C10 (VHH, VHH in periplasmic extract; also called clone nr) VHH: QVQLQESGGGWVQVGESLRLSCVPSGRTFVSGIMGWFRQAPGKEREFVARIILNNNSTRYTDSVKGRFTISRDSAKNTMYLQMNTLRPEDTAVYYCAARDRYGSGNSLSPSAYDYWGQGTQVTVSS .
Output line: 0.0205

Input line: Let me know recorded koff for FJ1427_P035MP04H11 (VHH, VHH in periplasmic extract; also called clone nr) VHH: QVQLVESGGGWVQVGESPRLSCAPSGRTFVSGIMGWFRQTPGKEREFVARIILNNNSTRYTDSVKGRFTISRDSAKNTMYLQMNTLRPEDTAVYYCAARDRYGSGNSLSPSAYDYWGQGTQVTVSS , thanks.
Output line: 0.0103

Input line: Specify measured koff for FJ1427_P035MP04E08 (VHH, VHH in periplasmic extract; also called clone nr) VHH: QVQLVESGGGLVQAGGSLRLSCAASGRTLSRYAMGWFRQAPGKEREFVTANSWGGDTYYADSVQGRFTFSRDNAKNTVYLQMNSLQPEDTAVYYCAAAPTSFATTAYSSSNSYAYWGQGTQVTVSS .
Output line: 0.00197

Input line: Provide measured koff value, entry: FJ1427_P035MP04H03 (VHH, VHH in periplasmic extract; also called clone nr) VHH: QLQLVESGGGLVQAGGSLRLSCAASGRTLSRYAMGWFRQAPGKEREFVAADSWGGDTFYADSVEGRFTFSRDNAKNAAYLQMNSLQPEDTATYYCAGAPTSFATTAYSSSNSYRYWGQGTQVTVSS
Output line: 0.001

Input line: Recall and state the measured koff for FJ1427_P035MP04E07 (VHH, VHH in periplasmic extract; also called clone nr) VHH: QVQLVESGGGLVQAGGSLRLSCAASGRTLSRYAMGWFRQAPGKERDFVAATSWGGDTYYADSVEGRFTFSRDNAKNAVYLQMNSLQPEDTAVYYCAAAPTSFATTAYSSSNSYAYWGQGTQVTVSS .
Output line: 0.00189

Input line: Could you please provide reported koff for FJ1427_P035MP04C11 (VHH, VHH in periplasmic extract; also called clone nr) VHH: QVQLVESGGGLVQHGGSLRLSCAASGPTFSRVAVGWFRQVPGKEREFVAVVNRPGSMTKYADSVKGRFNISRDTAKNTVYLQMNSLKPEDTAVYYCAADSVPYGRPYYFTTSAGDYDYWGQGTQVTVSS ? Thanks!
Output line: 0.0693

Input line: Given FJ1427_P035MP04B06 (VHH, VHH in periplasmic extract; also called clone nr; 330) VHH: QLQLVESGGGWVQVGESLRLSCVPSGRTFVSGIMGWFRQAPGKEREFVARIILNNNSTRYTDSVKGRFTISRDSAKNTMYLQMNTLRPEDTAVYYCAARDRYGSGNSLSPSAYDYWGQGTQVTVSS , respond with its koff.
Output line: 0.0208

Input line: Identify measured koff associated with FJ1427_P035MP04D01 (VHH, VHH in periplasmic extract; also called clone nr) VHH: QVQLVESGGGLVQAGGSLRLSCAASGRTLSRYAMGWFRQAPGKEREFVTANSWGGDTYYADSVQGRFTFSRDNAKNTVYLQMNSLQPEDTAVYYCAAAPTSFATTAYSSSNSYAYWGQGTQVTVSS
Output line: 0.00182

Input line: Tell me measured koff for FJ1427_P035MP04B03 (VHH, VHH in periplasmic extract; also called clone nr) VHH: QVQLQESGGGLVQAGESLRLSCAASGPTASRVAVAWFRQVPGKEREFVAVVNRPGTMTKYADSVKGRFTISRDSAKNTVYLQMNSLKPEDTAVYYCAADSVPYGRPYYFQTSAGNYDYWGQGTQVTVSS please.
Output line: 0.0421

Input line: Identify koff associated with the binder FJ1427_P035MP04C06 (VHH, VHH in periplasmic extract; also called clone nr) VHH: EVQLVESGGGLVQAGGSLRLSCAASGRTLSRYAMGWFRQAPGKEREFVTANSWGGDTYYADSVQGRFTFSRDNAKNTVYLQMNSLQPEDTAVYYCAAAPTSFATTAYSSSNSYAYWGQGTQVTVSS
Output line: 0.00201

Input line: Identify the reported koff for the following entry. FJ1427_P035MP04A02 (VHH, VHH in periplasmic extract; also called clone nr) VHH: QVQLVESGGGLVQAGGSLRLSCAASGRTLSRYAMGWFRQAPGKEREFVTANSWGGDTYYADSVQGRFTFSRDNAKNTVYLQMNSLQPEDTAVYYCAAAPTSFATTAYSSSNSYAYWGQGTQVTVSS
Output line: 0.00306
